# Tested on: SF-295
# assayInfo: NCI 60-cell line one-dose antiproliferative screen (SRB)
# Format: cell-based
# measurementConditions: Homo sapiens, read-out: growth inhibition % (GI%)
outcomeMeasure: inhibition at 10 µM

Worked examples, 7 compounds total:
1) Cc1ccc(C(=O)c2ccc(CC(=O)NNC(=O)Nc3ccc(Cl)c(C(F)(F)F)c3)n2C)cc1 ... < 10%
2) Cc1ccc(C(=O)c2ccc(CC(=O)NN=Cc3ccc4c(c3)OCO4)n2C)cc1 ... < 10%
3) Cc1ccc(C(=O)c2ccc(CC(=O)NN=C3C(=O)Nc4ccc(OC(F)(F)F)cc43)n2C)cc1 ... < 10%
4) Cc1ccc(C(=O)c2ccc(CC(=O)NN=Cc3ccc(O)cc3O)n2C)cc1 ... 52.8%
5) Cc1ccc(C(=O)c2ccc(CC(=O)NN=Cc3cccc(O)c3O)n2C)cc1 ... 16.5%
6) Cc1ccc(C(=O)c2ccc(CC(=O)NN=C3C(=O)Nc4ccccc43)n2C)cc1 ... < 10%
7) Cc1ccc(C(=O)c2ccc(CC(=O)NN3C(=O)C=CC3=O)n2C)cc1 ... < 10%

From here, focus on the item given below.
I'd like to know its inhibition at 10 µM. The compound in question is `Cc1ccc(C(=O)c2ccc(CC(=O)NN=Cc3ccccc3O)n2C)cc1`
< 10%

---

# System: SR
# assayInfo: NCI 60-cell line one-dose antiproliferative screen (SRB)
# Format: cell-based
# measurementConditions: Homo sapiens, read-out: growth inhibition % (GI%)
outcomeMeasure: inhibition at 10 µM (%)
Report only the number, with the unit % understood.

Worked examples, 3 compounds total:
1. Cc1ccc(C(=O)c2ccc(CC(=O)NN=Cc3ccc(O)cc3O)n2C)cc1 ... 82.7
2. Cc1ccc(C(=O)c2ccc(CC(=O)NN=Cc3ccccc3O)n2C)cc1 ... 43.8
3. Cc1ccc(C(=O)c2ccc(CC(=O)NN=Cc3cccc(O)c3O)n2C)cc1 ... 91.1

From here, focus on the item given below.
I'd like to know its inhibition at 10 µM. The compound in question is `Cc1ccc(C(=O)c2ccc(CC(=O)NN=Cc3c[nH]c4ccccc34)n2C)cc1`
11.2

---

# Test system: leukaemia HL-60 (TB) cell line
# assayInfo: MTT cytotoxicity assay
# Type: cell-based
# measurementConditions: Homo sapiens, mean ± SD of three experiments
In this section we review reported IC50 values for a set of compounds.
Report only the number, with the unit µM understood.

Worked examples, 2 compounds total:
1. Cc1ccc(C(=O)c2ccc(CC(=O)NN=Cc3ccc(O)cc3O)n2C)cc1 ... 31.7
2. Cc1ccc(C(=O)c2ccc(CC(=O)NN=Cc3cccc(O)c3O)n2C)cc1 ... 10.3

From here, focus on the item given below.
Notebook: pull reported IC50 for leukaemia HL-60 (TB) cell line, entry CCN(CC)CCNC(=O)c1c(C)[nH]c(/C=C2\C(=O)Nc3ccc(F)cc32)c1C [Sunitinib, reference compound]
2.77

---

# Tested on: RXF 393
# assayInfo: NCI 60-cell line one-dose antiproliferative screen (SRB)
# Format: cell-based
# measurementConditions: Homo sapiens, read-out: growth inhibition % (GI%)
In this section we review reported inhibition at 10 µM values for a set of molecules.
Report only the number, with the unit % understood.

1) Cc1ccc(C(=O)c2ccc(CC(=O)NN=Cc3cccc(O)c3O)n2C)cc1 ... 70.3
2) Cc1ccc(C(=O)c2ccc(CC(=O)NN3C(=O)C=CC3=O)n2C)cc1 ... 13
3) Cc1ccc(C(=O)c2ccc(CC(=O)NN=Cc3ccc(O)cc3O)n2C)cc1 ... 50.3

From here, focus on the item given below.
I'd like to know its inhibition at 10 µM. The molecule in question is `Cc1ccc(C(=O)c2ccc(CC(=O)NN=Cc3ccccc3O)n2C)cc1`
10.4

Value source: paper PMC8079033
